I'd appreciate it if you could supply Catalase endpt. values for the items below.
Assay: Catalase activity, conversion of H2O2 to oxygen, polarographic oxygen electrode (Example 2)
Assay type: biochemical
Settings: relative to C7 (C7 = 100)
Answers are plain numbers.

INSERT INTO assay_data (structuresmilesstring, observedproperty, reportedresult) VALUES
  ('[Cl][Mn]1[O]c2ccccc2C=Nc2cccnc2N=Cc2ccccc2[O]1', 'Catalase endpt.', 493);

Report Catalase endpt. for every entry below.
1. COc1cccc2c1[O][Mn]([O]C(C)=O)[O]c1c(cccc1OC)C=Nc1ncccc1N=C2
2. CC(=O)[O][Mn]1[O]c2ccccc2C=Nc2cccnc2N=Cc2ccccc2[O]1
3. CC(=O)[O][Mn]1[O]c2ccccc2CNCCNCc2ccccc2[O]1
4. COc1cccc2c1[O][Mn]([O]C(C)=O)[O]c1c(cccc1OC)C=NCCCN=C2
5. COc1cc(Br)c2c(c1)C=Nc1ccccc1N=Cc1cc(OC)cc(Br)c1[O][Mn]([O]C(C)=O)[O]2
6. CC(=O)[O][Mn]1[O]c2ccccc2C(C)=NCCN=C(C)c2ccccc2[O]1

### Response
674
494
52
24
159
19

### Prompt Supply measured Catalase endpt. of `CC(=O)[O][Mn]1[O]c2c3cccc2OCCOCCOCCOc2cccc(c2[O]1)C=Nc1ccccc1N=C3` in your reply.
### Response 756

###

I'd appreciate it if you could supply Cell viability, absorbance at 490 nm uncorrected for blank values for the items below.
System: Human dermal fibroblasts (HF cells)
Assay: Cell protection assay, tert-butylhydroperoxide (t-BHP) toxicity, XTT
Format: cell-based
Settings: 40 μM; t-BHP 0.5 mM
Give bare numbers.

INSERT INTO measurements (molecule, reportedresult) VALUES
  ('CC(=O)[O][Mn]1[O]c2c(F)cccc2C=NCCN=Cc2cccc(F)c2[O]1 [Compound C36]', 1.28);

Report Cell viability, absorbance at 490 nm uncorrected for blank for every entry below.
1. COc1cc(OC)c2c(c1)[O][Mn]([O]C(C)=O)[O]c1cc(OC)cc(OC)c1C=NCCN=C2 [Compound C35]
2. COc1cccc2c1[O][Mn]([O]C(C)=O)[O]c1c(cccc1OC)C=NCCN=C2 [Compound C32]
3. COc1ccc2c(c1)C=NCCN=Cc1cc(OC)ccc1[O][Mn]([Cl])[O]2 [Compound C41]

### Response
1: 1.52; 2: 1.48; 3: 1.35

###

Test: Catalase activity, conversion of H2O2 to oxygen, polarographic oxygen electrode (Example 2)
Format: biochemical
Conditions: relative to C7 (C7 = 100)
I'd appreciate it if you could supply Catalase rate values for the items below.

Answered cases to consult:
INSERT INTO assay_data (compound, reportedresult) VALUES
  ('[Cl][Mn]1[O]c2ccccc2C=Nc2cccnc2N=Cc2ccccc2[O]1 [Compound C44]', 272),
  ('COc1cccc2c1[O][Mn]([O]C(C)=O)[O]c1c(cccc1OC)C=NCCN=C2 [Compound C32]', 188),
  ('CC(=O)[O][Mn]1[O]c2c3cccc2OCCOCCOCCOc2cccc(c2[O]1)C=Nc1ccccc1N=C3 [Compound C82]', 345);

The record that follows has no Catalase rate shown yet.
### Prompt Supply measured Catalase rate of Fc1cccc2c1[O][Mn]([Cl])[O]c1c(F)cccc1C=NCCN=C2 [Compound C37] in your reply.
### Response 117

Reference for the values: patent US7582786B2
